Value source: patent US9828333B2

# Tested on: influenza A virus A/Jena/5258/2009 (pandemic H1N1; oseltamivir-sensitive)
# Type: cell-based
Reported Property: 95% inhibitory concentration (values in parentheses), A/Jena/5258/2009

INSERT INTO results (compound, endpoint_result) VALUES
  ('CCC(CC)O[C@@H]1C=C(C(=O)O)C[C@H](NC(=N)N)[C@H]1NC(C)=O [Compound 9]', '0.002 (0.003) μM'),
  ('CC(=O)N[C@H]1[C@H]([C@H](O)[C@H](O)CO)OC(C(=O)O)=C[C@@H]1N=C(N)N [Zanamivir, reference compound]', '0.125 (0.219) μM'),
  ('CCOC(=O)C1=C[C@@H](OC(CC)CC)[C@H](NC(C)=O)[C@@H](N)C1 [Oseltamivir, reference compound]', '0.016 (0.021) μM'),
  ('CCC(CC)O[C@@H]1C=C(C(=O)O)C[C@H](NC(C)=N)[C@H]1NC(C)=O [Compound 3]', '0.001 (0.011) μM');
